biological target: Phenylethanolamine N-methyltransferase (Homo sapiens) (UniProt P11086); assay: Confirmatory Screen for Target Class Profiling of Small Molecule Inhibitors of Methyltransferases (AID 1745852); settings: MTase-Glo luminescence, SAH detection, recombinant enzyme; measured here: PNMT max response; stronger effect = lower value
Sequence (P11086 whole entry, looked up): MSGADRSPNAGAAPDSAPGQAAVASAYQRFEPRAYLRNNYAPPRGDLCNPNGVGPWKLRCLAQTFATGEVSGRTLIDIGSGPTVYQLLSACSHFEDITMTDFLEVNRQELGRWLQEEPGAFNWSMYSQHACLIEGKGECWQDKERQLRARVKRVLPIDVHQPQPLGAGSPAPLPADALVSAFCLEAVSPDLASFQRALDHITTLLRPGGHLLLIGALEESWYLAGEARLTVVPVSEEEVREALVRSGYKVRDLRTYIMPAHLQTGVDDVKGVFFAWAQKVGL
Task for the reader: assign each of the following compounds its reported activity.
Answers are plain numbers, in %.

| COMPOUND | SYSTEM_UNDER_TEST | OBS_VALUE |
| --- | --- | --- |
| C[C@]12Cc3cn4c(nc3C=C1CCC1C2CC[C@@]2(C)[C@H]1CC[C@@]2(O)C#N)nc1ccccc14 (stereo partly drawn) | Phenylethanolamine N-methyltransferase (Homo sapiens) (UniProt P11086) | -11.6 |

For every listed record, write down its activity.
1. CN1CCC[C@@H]1Cc1c[nH]c2ccc(Nc3ncccc3[N+](=O)[O-])cc12
2. CCCN1CC[C@@H]2c3cc(O)ccc3CC[C@@H]21

1. 3.35
2. -0.789

====

system: HEK293; test: Cytotoxic Profiling of Annotated Libraries Using Quantitative High-Throughput Screening (AID 1296008); settings: Five cell lines viability, CellTiter-Glo ATP luminescence, 48-72 h; further: nearly all actives have a fitted effect of over 60% in size; further: potency means the concentration at half of the fitted maximal effect
Results filed as inconclusive are left out. The source made the active and inactive calls. The call rests on the fitted dose curve; in most records, active means well fitted inhibition curve with a large enough effect; inconclusive means small, poorly fitted or top-dose-only effect; inactive means flat fitted curve, though single readings scatter.

| COMPOUND | Potency |
| --- | --- |
| COc1cc(C)[nH]c(=O)c1CNC(=O)c1c(C)n([C@H](C)C2CCOCC2)c2ccccc12 | inactive |
| CC1C/C=C/C(O)C(O)CC/C=C/c2cc(O)cc(O)c2C(=O)O1 (centres undefined) | inactive |
| COC1CC(OC2CCC3(C)C(CCC4C3CCC3(C)C(C5=CC(=O)OC5)C(OC(C)=O)CC43O)C2)OC(C)C1OC1OC(CO)C(O)C(O)C1O (centres undefined) | 1220 nM (active) |
| CCCCCCn1c(=O)c(C(=O)Nc2ccc(C(=O)OCCC)cc2)c(O)c2ccccc21 | inactive |

====

assay: MultiTox-Fluor Cytotoxicity Assay - LYMP1-002 - Dead Cells (AID 960); settings: LYMP1-002 lymphoblastoid cells, dead-cell protease fluorescence; series mostly up to 46.1 µM; further: nearly all actives have a fitted effect of over 60% in size
Records with an inconclusive call do not appear. Calls of active or inactive are those of the source. Calls follow the shape of the dose curve; as a rule, active = well fitted cell-killing curve with a large enough effect; inconclusive = small, poorly fitted or top-dose-only effect, or effect the other way; inactive = no such curve, though single readings can be large or run the other way.
The reply should name one outcome from 1 (yes) = active, 0 (no) = inactive

Per the records of this test, what outcome belongs to S=C=S ?
0 (no)

Per the records of this test, what outcome belongs to COc1ccc2c(c1OC)C(=O)OC2C1c2cc3c(cc2CCN1C)OCO3 (stereo not drawn) ?
0 (no)

Per the records of this test, what outcome belongs to Clc1ccccc1Cl ?
0 (no)

Per the records of this test, what outcome belongs to ClC(Cl)(Cl)Cl ?
0 (no)

Per the records of this test, what outcome belongs to C[C@H]1CCC[C@H](O)CCCCCc2cc(O)cc(O)c2C(=O)O1 ?
0 (no)

Per the records of this test, what outcome belongs to O=C1C2CC=CCC2C(=O)N1SC(Cl)(Cl)Cl (stereo not drawn) ?
1 (yes)

Per the records of this test, what outcome belongs to O=[N+]([O-])c1ccc(F)c([N+](=O)[O-])c1 ?
0 (no)

====

assay: qHTS profiling for inhibitors of Plasmodium falciparum proliferation (AID 504749); further: nearly all actives have a fitted effect of over 60% in size;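 on activity, negative = inhibition: 0% = DMSO vehicle and full inhibition = artemisinin control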; conditions: P. falciparum in erythrocytes, SYBR Green DNA, 72 h; at 28.7 µM (top of the series); parasite line A
Results filed as inconclusive are left out.
READOUT_NAME: activity, negative = inhibition (%)
Numbers only, in %.

| COMPOUND | OBS_VALUE |
| --- | --- |
| CCOP(=O)(OCC)O/C(=C/Cl)c1ccc(Cl)cc1Cl | -27.9 |
| O=C(NC(=O)c1c(F)cccc1F)Nc1ccc(Cl)c(Oc2ncc(C(F)(F)F)cc2Cl)c1 | 9.79 |
| O=C1CN=C(c2ccccc2)c2cc(Cl)ccc2N1CC1CC1 | -5.97 |

For every listed record, write down its activity, negative = inhibition.
1. COCC(C)N(C(=O)CCl)c1c(C)csc1C (stereo not drawn)
2. Cn1sc(Cl)cc1=O
3. CCC1C(C)=NN=C(c2ccc(OC)c(OC)c2)c2cc(OC)c(OC)cc21 (stereo not drawn)
4. CNC(=O)OCC[N+](C)(C)C
5. c1ccc2cc(CC3=NCCN3)ccc2c1
6. CC[N+](C)(CC)CCOC(=O)C(O)(c1ccccc1)c1ccccc1
7. O=C1CCO1

1. 7.86
2. 11.9
3. 12.9
4. 18.2
5. 3.45
6. 5.27
7. -3.97

For every listed record, write down its activity, negative = inhibition.
1. O=[N+]([O-])C(Br)(CO)CO
2. C=CCN=C=S
3. CCC(N)Cc1c[nH]c2ccccc12 (stereo not drawn)

1. 4.06
2. -3.28
3. -18.9

====

Tested on: CP297
Assay: qHTS profiling for inhibitors of Plasmodium falciparum proliferation (AID 504749); further: nearly all actives have a fitted effect of over 60% in size
Conditions: P. falciparum in erythrocytes, SYBR Green DNA, 72 h; series mostly up to 28.7 µM
Protocol: NIH National Institute of Allergy and Infectious Diseases [NIAID] NIH Chemical Genomics Center [NCGC] […] Because mature erythrocytes lack DNA, only Plasmodium-derived DNA is detected. NCGC Assay Protocol Summary: The SYBR Green viability assay was adapted from a method described previously (Plouffe et al., 2008). […] The following morning, fluorescence intensity at 485(14) nm excitation and 535(25) nm emission wavelengths was measured on an EnVision (Perkin Elmer) plate reader. […]
Inconclusive results are not listed. Activity calls are given as the source filed them. The call rests on the fitted dose curve; in most records, active means well fitted inhibition curve with a large enough effect; inconclusive means small, poorly fitted or top-dose-only effect; inactive means flat fitted curve, though single readings scatter.
The reply should name one outcome from active, inactive

| COMPOUND | CATEGORY_LABEL |
| --- | --- |
| COC([CH2][Hg])CNC(=O)c1ccccc1OCC(=O)O (stereo not given) | inactive |

Per the records of this test, what outcome belongs to CCN(CC)C(=O)/C(Cl)=C(\C)OP(=O)(OC)OC ?
active

Per the records of this test, what outcome belongs to N#CC(C#N)=Cc1cc(O)c(O)c(O)c1 ?
active

====

test system: CRL-7250; assay: qHTS assay to identify novel small-molecules to repurpose for Merkel cell carcinoma treatment (AID 1296009); details: MCC and control cell lines, CellTiter-Glo viability, 72 h; at 44.8 µM (top of the series) unless noted; further: nearly all actives have a fitted effect of over 60% in size
Records with an inconclusive call do not appear. The source made the active and inactive calls. The call rests on the fitted dose curve; in most records, active means well fitted inhibition curve with a large enough effect; inconclusive means small, poorly fitted or top-dose-only effect; inactive means flat fitted curve, though single readings scatter.
READOUT_NAME: outcome

These recorded examples may help you get a feel for the data.
| COMPOUND | SYSTEM_UNDER_TEST | OBS_VALUE |
| --- | --- | --- |
| COC1=CC(=O)O[C@@H](CCc2ccccc2)C1 | CRL-7250 | inactive |
| C/C=C(\C)C(=O)OC1CC2C(C)(C)OC(=O)CC(OC(C)=O)C2(C)C2CC(OC(=O)C(C)C)C3(C)C(c4ccoc4)CC4OC43C12C (centres undefined) | CRL-7250 | inactive [at 17.4 µM] |
| O=C(N1CCOCC1)N1CCN(c2ccc(Cl)cc2)CC1 | CRL-7250 | inactive |
| CCC(C)(OC(C)=O)C(=O)O[C@H]1[C@H](OC(C)=O)C[C@@H]2[C@@](C)([C@@H]3C[C@H]4C=CO[C@H]4O3)[C@H](C)C[C@H](OC(C)=O)[C@@]2(COC(C)=O)[C@@]12CO2 (some centres undefined) | CRL-7250 | inactive [at 17.4 µM] |
| COC(=O)C1(C)CCC(O)C2(C)c3cc(O)c(C(C)C)cc3C(O)C(OC(C)=O)C12 (centres undefined) | CRL-7250 | inactive [at 17.4 µM] |
| CC1C/C=C/C(O)C(O)CC/C=C/c2cc(O)cc(O)c2C(=O)O1 (centres undefined) | CRL-7250 | inactive |
| CC(C)(C)c1cc(C(C)(C)C)c2c(c1)C(O)(C(F)(F)F)C(=O)O2 (centres undefined) | CRL-7250 | inactive |
| COc1c(C(C)C)cc2c(c1O)[C@@]1(C(=O)O)CCCC(C)(C)C1CC2 (some centres undefined) | CRL-7250 | inactive |
| CC[C@H]1CN2CC[C@H]1C[C@@H]2[C@@H](O)c1ccnc2ccc(OC)cc12 | CRL-7250 | inactive |
| COc1ccccc1CN[C@H]1C2CCN(CC2)[C@H]1C(c1ccccc1)c1ccccc1 | CRL-7250 | inactive |

For every listed record, write down its outcome.
1. OCCCCC#Cc1cncc(OC[C@@H]2CCN2)c1
2. Cc1cccc(NC(=O)N[C@@H]2N=C(c3ccccc3)c3ccccc3N(C)C2=O)c1
3. COC(=O)C1(C)CCC(O)C2(C)c3c(O)cc(C(C)C)cc3C(O)C(OC(C)=O)C12 (centres undefined)
4. N#CC(OC1OC(COC2OC(CO)C(O)C(O)C2O)C(O)C(O)C1O)c1ccccc1 (centres undefined)
5. CN1C(=O)N(c2ccc(C#N)c(C(F)(F)F)c2)C(=O)[C@]1(CO)c1ccccc1

inactive
inactive
inactive [at 17.4 µM]
inactive [at 17.4 µM]
inactive

For every listed record, write down its outcome.
1. O=C1C[C@@H]2OCC=C3CN4CC[C@]56c7ccccc7N1[C@H]5[C@H]2[C@H]3C[C@H]46
2. OC1(c2ccc(Cl)cc2)c2ccccc2C2=NCCN21 (centres undefined)
3. C[C@@]12C[C@@H](c3ccoc3)OC(=O)C1CC[C@]1(C)[C@H]2[C@H]2C=C[C@]1(O)C(=O)O2 (some centres undefined)
4. COc1cc(CCNCc2ccccc2O)c(OC)cc1C#N

inactive
inactive
inactive
inactive
